target: cyclophilin A (CypA) (Homo sapiens (Human)); assay: Inhibitor binding to cyclophilin proteins by SPR, CypA; design: unit not given here; conditions: 1:1 binding model;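 further: Single-cycle kinetics on a Biacore T200, compound injected at several concentrations for 1 min each at 50 µL/min, then 10 min dissociation, in HEPES pH 7.4 buffer with 3% DMSO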
Sequence (P62937 whole entry): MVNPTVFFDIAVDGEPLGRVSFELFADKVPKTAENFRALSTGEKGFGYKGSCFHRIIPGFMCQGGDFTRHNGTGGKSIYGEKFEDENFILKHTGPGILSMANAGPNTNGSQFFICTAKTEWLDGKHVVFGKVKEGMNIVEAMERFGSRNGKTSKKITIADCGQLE
Starred links: 1 amine or outer side, 2 acyl side, 3 side chain; linkers in the order of their positions; H or OH if unused. Non-standard residues stand in square brackets, D forms with d. Residues, ends and D or L forms follow the SMILES beside them. X48 = C[C@@H](CN1CCN(S(C)(=O)=O)CC1)[C@@H](C(=O)[*:2])N(C)[*:1]; X1 = COC[C@@H]1CN(C[C@H](C)[C@@H](C(=O)[*:2])N(C)[*:1])CCO1; MeBmt = C/C=C/C[C@@H](C)[C@@H](O)[C@H](NC)C(=O)O; NMeL = CN[C@@H](CC(C)C)C(=O)O; NMeV = CN[C@H](C(=O)O)C(C)C; dNMeA = CN[C@H](C)C(=O)O; Abu = CC[C@H](N)C(=O)O
propertyName: CypA Kd
Would you mind answering with just the numeric figure?

| compound | CypA Kd |
| --- | --- |
| C/C=C/C[C@@H](C)[C@@H](O)[C@H]1C(=O)N[C@@H](CC)C(=O)N(C)[C@H](C)C(=O)N(C)[C@@H]([C@@H](C)CN2CCO[C@H](COC)C2)C(=O)N[C@@H](C(C)C)C(=O)N(C)[C@@H](CC(C)C)C(=O)N[C@@H](C)C(=O)N[C@H](C)C(=O)N(C)[C@@H](CC(C)C)C(=O)N(C)[C@@H](CC(C)C)C(=O)N(C)[C@@H](C(C)C)C(=O)N1C [Compound 2.17.8] (cyclo(A[dA][NMeL][NMeL][NMeV][MeBmt][Abu][dNMeA][X1]V[NMeL])) | 1.2 |

Proceed to the following item.
In: Which measured CypA Kd value corresponds to C/C=C/C[C@@H](C)[C@@H](O)[C@H]1C(=O)N[C@@H](CC)C(=O)N(C)[C@H](C)C(=O)N(C)[C@@H]([C@@H](C)CN2CCN(S(C)(=O)=O)CC2)C(=O)N[C@@H](C(C)C)C(=O)N(C)[C@@H](CC(C)C)C(=O)N[C@@H](C)C(=O)N[C@H](C)C(=O)N(C)[C@@H](CC(C)C)C(=O)N(C)[C@@H](CC(C)C)C(=O)N(C)[C@@H](C(C)C)C(=O)N1C [Compound 2.17.9] (cyclo(A[dA][NMeL][NMeL][NMeV][MeBmt][Abu][dNMeA][X48]V[NMeL])) ?
Out: 0.9

====

biological target: cyclophilin B (CypB) (Homo sapiens (Human), UniProt P23284); test: Inhibitor binding to cyclophilin proteins by SPR, CypB; set-up: unit not given here; conditions: 1:1 binding model
Sequence (P23284 34-216): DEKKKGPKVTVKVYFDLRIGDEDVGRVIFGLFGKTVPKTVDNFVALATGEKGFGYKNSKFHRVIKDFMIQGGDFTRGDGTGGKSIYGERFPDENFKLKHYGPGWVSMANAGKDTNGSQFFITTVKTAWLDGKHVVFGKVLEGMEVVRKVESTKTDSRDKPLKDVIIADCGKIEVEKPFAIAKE
Starred links: 1 amine or outer side, 2 acyl side, 3 side chain; linkers in the order of their positions; H or OH if unused. Non-standard residues stand in square brackets, D forms with d. Residues, ends and D or L forms follow the SMILES beside them. X28 = CCN1CCN(C(=O)OC[C@H](C)[C@@H](C(=O)[*:2])N(C)[*:1])CC1; X38 = C[C@@H](CN1CCN2C(=O)OCC2C1)[C@@H](C(=O)[*:2])N(C)[*:1]; X17 = C[C@H](COCC(C)(C)O)[C@@H](C(=O)[*:2])N(C)[*:1]; X20 = C[C@H](CCCN1CCOCC1)[C@@H](C(=O)[*:2])N(C)[*:1]; MeBmt = C/C=C/C[C@@H](C)[C@@H](O)[C@H](NC)C(=O)O; NMeL = CN[C@@H](CC(C)C)C(=O)O; NMeV = CN[C@H](C(=O)O)C(C)C; dNMeA = CN[C@H](C)C(=O)O; Abu = CC[C@H](N)C(=O)O
Documented CypB Kd across a set of compounds
Would you mind answering with just the numeric figure?

// below: answered compounds
| compound | measured |
| --- | --- |
| C/C=C/C[C@@H](C)[C@@H](O)[C@H]1C(=O)N[C@@H](CC)C(=O)N(C)[C@H](C)C(=O)N(C)[C@@H]([C@H](C)COCCN2CC(OC)C2)C(=O)N[C@@H](C(C)C)C(=O)N(C)[C@@H](CC(C)C)C(=O)N[C@@H](C)C(=O)N[C@H](C)C(=O)N(C)[C@@H](CC(C)C)C(=O)N(C)[C@@H](CC(C)C)C(=O)N(C)[C@@H](C(C)C)C(=O)N1C | 0.4 |
| C/C=C/C[C@@H](C)[C@@H](O)[C@H]1C(=O)N[C@@H](CC)C(=O)N(C)[C@H](C)C(=O)N(C)[C@@H]([C@H](C)CCCN2CCOCC2)C(=O)N[C@@H](C(C)C)C(=O)N(C)[C@@H](CC(C)C)C(=O)N[C@@H](C)C(=O)N[C@H](C)C(=O)N(C)[C@@H](CC(C)C)C(=O)N(C)[C@@H](CC(C)C)C(=O)N(C)[C@@H](C(C)C)C(=O)N1C [Compound 2.19.1] (cyclo([MeBmt][Abu][dNMeA][X20]V[NMeL]A[dA][NMeL][NMeL][NMeV])) | 0.5 |
| C/C=C/C[C@@H](C)[C@@H](O)[C@H]1C(=O)N[C@@H](CC)C(=O)N(C)[C@H](C)C(=O)N(C)[C@@H]([C@@H](C)COC(=O)N2CCN(CC)CC2)C(=O)N[C@@H](C(C)C)C(=O)N(C)[C@@H](CC(C)C)C(=O)N[C@@H](C)C(=O)N[C@H](C)C(=O)N(C)[C@@H](CC(C)C)C(=O)N(C)[C@@H](CC(C)C)C(=O)N(C)[C@@H](C(C)C)C(=O)N1C [Compound 2.17.14] (cyclo(A[dA][NMeL][NMeL][NMeV][MeBmt][Abu][dNMeA][X28]V[NMeL])) | 0.4 |
| C/C=C/C[C@@H](C)[C@@H](O)[C@H]1C(=O)N[C@@H](CC)C(=O)N(C)[C@H](C)C(=O)N(C)[C@@H]([C@@H](C)CN2CCN3C(=O)OCC3C2)C(=O)N[C@@H](C(C)C)C(=O)N(C)[C@@H](CC(C)C)C(=O)N[C@@H](C)C(=O)N[C@H](C)C(=O)N(C)[C@@H](CC(C)C)C(=O)N(C)[C@@H](CC(C)C)C(=O)N(C)[C@@H](C(C)C)C(=O)N1C (some centres unmarked) [Compound 2.17.10] (cyclo(A[dA][NMeL][NMeL][NMeV][MeBmt][Abu][dNMeA][X38]V[NMeL])) | 0.5 |

Proceed to the following item.
In: Which measured CypB Kd value corresponds to C/C=C/C[C@@H](C)[C@@H](O)[C@H]1C(=O)N[C@@H](CC)C(=O)N(C)[C@H](C)C(=O)N(C)[C@@H]([C@H](C)COCC(C)(C)O)C(=O)N[C@@H](C(C)C)C(=O)N(C)[C@@H](CC(C)C)C(=O)N[C@@H](C)C(=O)N[C@H](C)C(=O)N(C)[C@@H](CC(C)C)C(=O)N(C)[C@@H](CC(C)C)C(=O)N(C)[C@@H](C(C)C)C(=O)N1C [Compound 2.7] (cyclo(A[dA][NMeL][NMeL][NMeV][MeBmt][Abu][dNMeA][X17]V[NMeL])) ?
Out: 1.2

====

test system: peripheral blood mononuclear cells (PBMC); assay: Anti-proliferative or immunosuppressive activity, BrdU incorporation in PHA-stimulated PBMC; type: cell-based; settings: PHA 3 μg/ml, 60 hour compound treatment; read-out: EMV PBMC IC50
Starred links: 1 amine or outer side, 2 acyl side, 3 side chain; linkers in the order of their positions; H or OH if unused. Non-standard residues stand in square brackets, D forms with d. Residues, ends and D or L forms follow the SMILES beside them. X74 = C[C@H](CCN1CCN2C(=O)OC[C@@H]2C1)[C@@H](C(=O)[*:2])N(C)[*:1]; X70 = C[C@H](CCCOC(=O)N1CCN(C)CC1)[C@@H](C(=O)[*:2])N(C)[*:1]; X19 = COCCN1CCN(C[C@H](C)[C@@H](C(=O)[*:2])N(C)[*:1])CC1; X46 = C[C@H](CN1CC2CCC(C1)O2)[C@@H](C(=O)[*:2])N(C)[*:1]; X43 = COCCN(C)C[C@@H](C)[C@@H](C(=O)[*:2])N(C)[*:1]; MeBmt = C/C=C/C[C@@H](C)[C@@H](O)[C@H](NC)C(=O)O; NMeL = CN[C@@H](CC(C)C)C(=O)O; NMeV = CN[C@H](C(=O)O)C(C)C; dNMeA = CN[C@H](C)C(=O)O; Abu = CC[C@H](N)C(=O)O
propertyName: IC50 (µM)
Reply numerically in µM, unit not repeated.

// below: answered compounds
| compound | measured |
| --- | --- |
| C/C=C/C[C@@H](C)[C@@H](O)[C@H]1C(=O)N[C@@H](CC)C(=O)N(C)[C@H](C)C(=O)N(C)[C@@H]([C@H](C)CCCOC(=O)N2CCN(C)CC2)C(=O)N[C@@H](C(C)C)C(=O)N(C)[C@@H](CC(C)C)C(=O)N[C@@H](C)C(=O)N[C@H](C)C(=O)N(C)[C@@H](CC(C)C)C(=O)N(C)[C@@H](CC(C)C)C(=O)N(C)[C@@H](C(C)C)C(=O)N1C [Compound 2.19.7] (cyclo(A[dA][NMeL][NMeL][NMeV][MeBmt][Abu][dNMeA][X70]V[NMeL])) | 15.9 |
| C/C=C/C[C@@H](C)[C@@H](O)[C@H]1C(=O)N[C@@H](CC)C(=O)N(C)[C@H](C)C(=O)N(C)[C@@H]([C@@H](C)CN2CCN(CCOC)CC2)C(=O)N[C@@H](C(C)C)C(=O)N(C)[C@@H](CC(C)C)C(=O)N[C@@H](C)C(=O)N[C@H](C)C(=O)N(C)[C@@H](CC(C)C)C(=O)N(C)[C@@H](CC(C)C)C(=O)N(C)[C@@H](C(C)C)C(=O)N1C [Compound 2.17.4] (cyclo(A[dA][NMeL][NMeL][NMeV][MeBmt][Abu][dNMeA][X19]V[NMeL])) | 2.7 |
| C/C=C/C[C@@H](C)[C@@H](O)[C@H]1C(=O)N[C@@H](CC)C(=O)N(C)[C@H](C)C(=O)N(C)[C@@H]([C@H](C)CCN2CCN3C(=O)OC[C@@H]3C2)C(=O)N[C@@H](C(C)C)C(=O)N(C)[C@@H](CC(C)C)C(=O)N[C@@H](C)C(=O)N[C@H](C)C(=O)N(C)[C@@H](CC(C)C)C(=O)N(C)[C@@H](CC(C)C)C(=O)N(C)[C@@H](C(C)C)C(=O)N1C [Compound 2.18.9] (cyclo(A[dA][NMeL][NMeL][NMeV][MeBmt][Abu][dNMeA][X74]V[NMeL])) | 9.2 |
| C/C=C/C[C@@H](C)[C@@H](O)[C@H]1C(=O)N[C@@H](CC)C(=O)N(C)[C@H](C)C(=O)N(C)[C@@H]([C@H](C)CN2CC3CCC(C2)O3)C(=O)N[C@@H](C(C)C)C(=O)N(C)[C@@H](CC(C)C)C(=O)N[C@@H](C)C(=O)N[C@H](C)C(=O)N(C)[C@@H](CC(C)C)C(=O)N(C)[C@@H](CC(C)C)C(=O)N(C)[C@@H](C(C)C)C(=O)N1C [Compound 2.5.3] (cyclo([MeBmt][Abu][dNMeA][X46]V[NMeL]A[dA][NMeL][NMeL][NMeV])) | 5.8 |

Proceed to the following item.
In: Which measured IC50 value corresponds to C/C=C/C[C@@H](C)[C@@H](O)[C@H]1C(=O)N[C@@H](CC)C(=O)N(C)[C@H](C)C(=O)N(C)[C@@H]([C@H](C)CN(C)CCOC)C(=O)N[C@@H](C(C)C)C(=O)N(C)[C@@H](CC(C)C)C(=O)N[C@@H](C)C(=O)N[C@H](C)C(=O)N(C)[C@@H](CC(C)C)C(=O)N(C)[C@@H](CC(C)C)C(=O)N(C)[C@@H](C(C)C)C(=O)N1C [Compound 2.5.22] (cyclo(A[dA][NMeL][NMeL][NMeV][MeBmt][Abu][dNMeA][X43]V[NMeL])) ?
Out: 8.9

Reference source: patent US9566312B2
